// data source = ChEMBL document CHEMBL4665764

assay: Antiproliferative activity against Con A-induced BALB/c mouse T cell after 48 hrs by CCK8 assay; assay type: functional, tissue-based, T cell line
Assay Metric: IC50 (µM)
Please give a number only; it is taken to be in µM.

COCCCOC(=O)[C@]1(C)CC[C@]2(C)CC[C@]3(C)C4=CC=C5C(=CC(=O)C(O)=C5C)[C@]4(C)CC[C@@]3(C)[C@@H]2C1 ... 0.994
CC1=C(O)C(=O)C=C2C1=CC=C1[C@@]2(C)CC[C@@]2(C)[C@@H]3C[C@](C)(C(=O)NCCN(C)C)CC[C@]3(C)CC[C@]12C ... 0.225
CC1=C(O)C(=O)C=C2C1=CC=C1[C@@]2(C)CC[C@@]2(C)[C@@H]3C[C@](C)(C(=O)OCc4cccc(Br)c4)CC[C@]3(C)CC[C@]12C ... 1.07

May I ask what IC50 has been recorded for `CC1=C(O)C(=O)C=C2C1=CC=C1[C@@]2(C)CC[C@@]2(C)[C@@H]3C[C@](C)(C(=O)N4CCCC4)CC[C@]3(C)CC[C@]12C` ?
0.323

May I ask what IC50 has been recorded for `CC1=C(O)C(=O)C=C2C1=CC=C1[C@@]2(C)CC[C@@]2(C)[C@@H]3C[C@](C)(C(=O)OCCC(C)C)CC[C@]3(C)CC[C@]12C` ?
1.09

May I ask what IC50 has been recorded for `CC1=C(O)C(=O)C=C2C1=CC=C1[C@@]2(C)CC[C@@]2(C)[C@@H]3C[C@](C)(C(=O)OCc4ccc(F)cc4)CC[C@]3(C)CC[C@]12C` ?
1.46

May I ask what IC50 has been recorded for `C=CCOC(=O)[C@]1(C)CC[C@]2(C)CC[C@]3(C)C4=CC=C5C(=CC(=O)C(O)=C5C)[C@]4(C)CC[C@@]3(C)[C@@H]2C1` ?
1.18

May I ask what IC50 has been recorded for `CCCOC(=O)[C@]1(C)CC[C@]2(C)CC[C@]3(C)C4=CC=C5C(=CC(=O)C(O)=C5C)[C@]4(C)CC[C@@]3(C)[C@@H]2C1` ?
0.924

May I ask what IC50 has been recorded for `CC1=C(O)C(=O)C=C2C1=CC=C1[C@@]2(C)CC[C@@]2(C)[C@@H]3C[C@](C)(C(=O)OCCCl)CC[C@]3(C)CC[C@]12C` ?
0.771

* * *

assay: Cytotoxicity against BALB/c mouse T cell assessed as reduction in cell viability after 48 hrs by CCK8 assay; type: tissue-based, T cell line; settings: BALB/c mouse T cells
Assay Metric: CC50 at 48 h (nM)
Please give a number only; it is taken to be in nM.

Record excerpt, results attached:
C#CCOC(=O)[C@]1(C)CC[C@]2(C)CC[C@]3(C)C4=C[C@@H](c5c[nH]c6cc(OC)ccc56)c5c(cc(OC(C)=O)c(OC(C)=O)c5C)[C@]4(C)CC[C@@]3(C)[C@@H]2C1 ... 3000
C#CCOC(=O)[C@]1(C)CC[C@]2(C)CC[C@]3(C)C4=C[C@@H](c5c[nH]c6ccc(F)cc56)c5c(cc(OC(C)=O)c(OC(C)=O)c5C)[C@]4(C)CC[C@@]3(C)[C@@H]2C1 ... 5600
CC1=C(O)C(=O)C=C2C1=CC=C1[C@@]2(C)CC[C@@]2(C)[C@@H]3C[C@](C)(C(=O)OCc4ccc(C(F)(F)F)cc4)CC[C@]3(C)CC[C@]12C ... 6700

May I ask what CC50 at 48 h has been recorded for `CC1=C(O)C(=O)C=C2C1=CC=C1[C@@]2(C)CC[C@@]2(C)[C@@H]3C[C@](C)(C(=O)OCc4ccccc4C)CC[C@]3(C)CC[C@]12C` ?
1700

May I ask what CC50 at 48 h has been recorded for `C#CCOC(=O)[C@]1(C)CC[C@]2(C)CC[C@]3(C)C4=CC=C5C(=CC(=O)C(O)=C5C)[C@]4(C)CC[C@@]3(C)[C@@H]2C1` ?
1400

May I ask what CC50 at 48 h has been recorded for `CC1=C(O)C(=O)C=C2C1=CC=C1[C@@]2(C)CC[C@@]2(C)[C@@H]3C[C@](C)(C(=O)On4nnc5ccccc54)CC[C@]3(C)CC[C@]12C` ?
15100

May I ask what CC50 at 48 h has been recorded for `CC1=C(O)C(=O)C=C2C1=CC=C1[C@@]2(C)CC[C@@]2(C)[C@@H]3C[C@](C)(C(=O)OCC4CCCCC4)CC[C@]3(C)CC[C@]12C` ?
1300

May I ask what CC50 at 48 h has been recorded for `COC(=O)[C@H](Cc1ccc(O)cc1)NC(=O)[C@]1(C)CC[C@]2(C)CC[C@]3(C)C4=CC=C5C(=CC(=O)C(O)=C5C)[C@]4(C)CC[C@@]3(C)[C@@H]2C1` ?
1400

May I ask what CC50 at 48 h has been recorded for `CC1=C(O)C(=O)C=C2C1=CC=C1[C@@]2(C)CC[C@@]2(C)[C@@H]3C[C@](C)(C(=O)NCCN(C)C)CC[C@]3(C)CC[C@]12C` ?
1200
